# tested-on: Kelch-like ECH-associated protein 1 (Homo sapiens) (UniProt Q14145)
# Sequence (Q14145 whole entry, looked up): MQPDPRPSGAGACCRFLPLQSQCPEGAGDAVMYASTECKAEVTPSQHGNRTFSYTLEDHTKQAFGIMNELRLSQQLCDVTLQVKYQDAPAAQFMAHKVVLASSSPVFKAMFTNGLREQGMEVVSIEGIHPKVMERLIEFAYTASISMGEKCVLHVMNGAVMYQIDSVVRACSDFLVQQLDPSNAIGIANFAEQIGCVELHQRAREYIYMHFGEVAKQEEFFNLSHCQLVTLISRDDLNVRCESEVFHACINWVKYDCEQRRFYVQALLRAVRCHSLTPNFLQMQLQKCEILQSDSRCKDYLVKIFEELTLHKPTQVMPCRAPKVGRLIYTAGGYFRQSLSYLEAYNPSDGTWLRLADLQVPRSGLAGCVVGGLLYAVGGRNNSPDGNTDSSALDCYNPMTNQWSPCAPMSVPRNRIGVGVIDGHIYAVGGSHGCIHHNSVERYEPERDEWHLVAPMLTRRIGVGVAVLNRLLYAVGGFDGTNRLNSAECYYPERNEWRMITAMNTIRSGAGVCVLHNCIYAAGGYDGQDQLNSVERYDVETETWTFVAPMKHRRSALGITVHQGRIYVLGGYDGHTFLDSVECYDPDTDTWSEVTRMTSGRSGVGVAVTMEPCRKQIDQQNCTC
# test-name: Keap1-Nrf2 protein-protein interaction inhibitors, dose response, biochemical, fluorescence polarization, dry powder samples (AID 651798)
# measurement-context: Keap1 Kelch/FITC-Nrf2 peptide fluorescence polarization
Active and inactive are the calls of the source.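 The calls were made as follows: active = fitted AC50 at or below twice the top valid dose, with signal falling as dose rises; inconclusive = flat fit between -30 and -70%, or poor fit; inactive = the rest, including rising effects.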
Answer with one of the outcomes given here: y = active, n = inactive

Below are worked cases with known answers.
O=C(O)C1CCCCC1C(=O)N1CCc2ccccc2C1CN1C(=O)Cc2ccccc2C1=O (stereo not drawn): n
O=C(O)Cc1ccccc1C(=O)N1CCc2ccccc2[C@H]1CN1C(=O)c2ccccc2C1=O: y

Please find the next compound below.
Record lookup: outcome of this test for O=C(O)C1CCCCC1C(=O)N1CCc2ccccc2C1CN1C(=O)[C@H]2CCCC[C@H]2C1=O (stereo partly drawn) ?
n
